For each of the sequences below, state its soluble fraction (log2).
Experiment: soluble fraction after stress (log2 fold change); higher = more stays soluble; pooled small domains, quantitative proteomics
Details: stress: 50 degC
Answer with a number only.

Task item: Could you tell me which soluble fraction (log2) is on file for HMETGKLIKELRLKKGMTQEELADKTEVSSRTIQRIENGEVDPRAYTLQMIARALEVDYSLFME ?
Reply: 0.0531

Task item: Query (sequence): HMHREITGSLAERNGRYTAILNLYDEDGKRRQKSIALGIPVKGNKRKAQAQLEELKRAYSLGLPQ ; field requested: soluble fraction (log2)
Reply: -0.115

Task item: Item under review: HMEFNDLNDDEKAILHIMYNTGEKMTTALAARITNRGRNFASKLLKSLVKKEILEWHGTSKQDRNQYYTLA . Reported soluble fraction (log2)?
Reply: -0.0326

Task item: # get_value(readout='soluble fraction (log2)', item= HMPSLGGLLALLKRNRKPDAMEALDRLISKEDRPETAEALENIREKVRNMQMREAEGLLLALMEP )
Reply: -0.0372

###

Experiment: soluble fraction after stress (log2 fold change); higher = more stays soluble; pooled small domains, quantitative proteomics
Conditions: stress: 50 degC
# binarize soluble fraction (log2): threshold -0.1 inclusive, high side Met, low side Not met

Task item: Quick check: does HMDTFYKNLSKKIKTIREKLSFSQEALAKELGISRVAISQIENGDRKISAEEIAKLSRVFNVPTDILLN have soluble fraction (log2) greater than or equal to -0.1?
Reply: Met

Task item: Quick check: does HMGSRRFGDSNHAAKLTEEQVVEIRELAAAGATTKFLAEMVGMHPNYVGLILRGLSWPEAGGPLRVA have soluble fraction (log2) greater than or equal to -0.1?
Reply: Met

Task item: API: above_or_equal(metric=soluble fraction (log2), cutoff=-0.1) for item HMDDADPYEILGVERDAEDAEIKRAYHDLIRENHPDRLMAEGLPQEMIDVANEKVAFINDAYDRIEKLRGM
Reply: Not met

Task item: Hi, just wondering whether HMQEPIAVPDFINKSAVDVLVNPVFTQNFKLVSEDVYDDKVPEGYIVGQSVKSDTLVQPGTEIVIYV shows soluble fraction (log2) of -0.1 or higher.
Reply: Met

Task item: Answer whether soluble fraction (log2) of HMGLLLSQLDKDYQRYIDLADSTFRDNQLAVSRGWYNRALGVKAAEKYPKDQIAEIEKKIAERM is greater than or equal to -0.1.
Reply: Not met

Task item: Hi, just wondering whether HMRLDSELVSARLHRFMGTNRKPDGEIVEKIAAILEGHPIETLDAFLQSLNGRKIKSYGFFPTVLRREIAN shows soluble fraction (log2) of -0.1 or higher.
Reply: Not met

Task item: Is soluble fraction (log2) for HMLLSHTAQREGELLTFLRGELALSSGLVKRLKWQNAFFLDGAPVHTNARVKPGQEITVRIEE at or above -0.1?
Reply: Not met

Task item: Threshold query (soluble fraction (log2) >= -0.1) on HMSYTYPVARLNHIKGKWYVLVSVPAHLRHLFPNQRDLRRSTGTDDESLAKRKQHALAQEIYDLFD
Reply: Not met

Task item: Textbook exercise: given the entry HMQERNYIVRRGDTLWDLAKTYYGSGTKYTVIYDANRDNIEAEAKRRGKQSSNGGYWIYPGTELTI , state whether its soluble fraction (log2) is greater than or equal to -0.1.
Reply: Not met

Task item: Does HMASPEIAFLNKFYQLSNTVNEISVMKIVKNYQEKYQQRISIEQMAKTLKTMGYAVRNNIISNIEEAPV have a reported soluble fraction (log2) of at least -0.1?
Reply: Not met

Task item: Could you please find out whether HMGPESKLTDAIKDYIYALYENLKGKSKFRNTIIEEVKKLYGVDISRESIRRVVNQKTDAETTENDDDEKA has soluble fraction (log2) that meets -0.1 or exceeds it?
Reply: Met

Task item: Entry HMRIATVTPIEEDQASDRVVAVYNDIKSTKQIDFIPNFWKVIAVNPDLLEQVWGQLKTLMHPEEVG : is its soluble fraction (log2) no less than -0.1?
Reply: Not met

Task item: Dear colleague, could you confirm whether HMIPSLTITVNEHSRQITRGTSLYTLRDALYPDADVLVVNGHPADSDRHLEEGDAVVLIRRGA has soluble fraction (log2) at or above -0.1?
Reply: Not met

Task item: Test whether the sequence HMGGAVQIAEQIAARIKDGALRPGELLPPVRQLAAELEVNPNTVASAYARLRDAGLVATRGRAGTVVLEPP records soluble fraction (log2) of -0.1 or higher.
Reply: Not met

Task item: Evaluate HMSGMNSDHRVNGNIHTFLIQHDLGTKWSVFTEQLLKQVFRSFLPDKELNFQTTDSTVILKVSLGSDFNEH : soluble fraction (log2) at minimum -0.1?
Reply: Met

Task item: // inclusive: soluble fraction (log2) at least -0.1? input: HMSSDLDQYMKNIRKQHNLSKREFAKQLGISAATIVRIENGITVSPSKNLISKLAYYLQKSEVEILQDIQS
Reply: Not met

Task item: Quick check: does HMLKFGLSQRELQILALLPTDEPLSILAKSLFISESTLKTHLTHIYRKLGVKNRLQAINVARKAGLLK have soluble fraction (log2) greater than or equal to -0.1?
Reply: Not met

Task item: Is the recorded value of soluble fraction (log2) equal to or greater than -0.1 for this sequence? HMRQIMIIVLKSTATKEDSLLFKNKLEQEYGVKVNEWTGVESTVLGLIGDTTKIDIDYISAQDIVESVKRV
Reply: Met

Task item: Answer whether soluble fraction (log2) of HMYDKKVFRLLFILNQLDSRKKVSTGELAKEFNVSPRTVQRDIVLLNTTGFPIISLEKGYHSFMEGFSLK is greater than or equal to -0.1.
Reply: Not met

Task item: Would you say HMKSKYLIKIEGDFDEKDLYKYLINVSIVNHTKNNGFTEVEFYNDNYSLQQNFLKSMLNDGIIITEFKKVE shows soluble fraction (log2) at minimum -0.1?
Reply: Not met

Task item: Record HMEDVDLFTKAMAALPNRYRDILLLRYSHGYTVEEISDILSMKPENVKKTIQRARKKLGEILEAEG ; criterion: soluble fraction (log2) no lower than -0.1. Met?
Reply: Not met

Task item: Is soluble fraction (log2) for HMGNTLAYSEFRQKVQEGAVKQVVLSEDRVTGELTNGDRFTANIVRDPELLKMLNDNNVKYDGKPT at or above -0.1?
Reply: Met

Task item: Does soluble fraction (log2) meet or surpass -0.1 for HMTLGPKQMGEAIIKNLKEKTGKSLEEWSQRILIHELTDKKEIIDFLKNDNGLGHFQALKIFEHLNGK ?
Reply: Met

Task item: Decide: soluble fraction (log2) of HMDSSALEPIVDQIIADNPKQVEQFQAGKTKVLGFFVGQVMKQTDGTANPKQVNELVAARLKSA >= -0.1?
Reply: Met

Task item: Kindly determine if soluble fraction (log2) recorded for HMYELREGDVVSVRILSQTGQNSYIASFAGGRFSVTSERAFAPGTVFSASVSLKDGTLVLSPL is above or exactly -0.1.
Reply: Not met

Task item: Evaluate HMSEGEMSQWIIAQAKQQGGGFQPDAARLLGSYVGNNTLRARQEIDKLLTYVGPSRVVTPEDVVLLTA : soluble fraction (log2) at minimum -0.1?
Reply: Met

Task item: Check this sequence for soluble fraction (log2) at or above -0.1: HMNHHTEQQLKALSNKVKDHRMRMRLLAVAHFKAGKNKADVARTLNVSRRMVNEWVANYFKGGVSALES
Reply: Not met

Task item: Kindly determine if soluble fraction (log2) recorded for HMSTTALLEKMVRYIRTLPVISQVVLSLHYYRGMELREIASELDITESRASQLHTTAVLGIRDLLSSY is above or exactly -0.1.
Reply: Not met

Task item: Hi, just wondering whether HMEVFGDTKEEQMIIDILKLGITDLEHLQAKSMLEPAIFSQTLTMLEISGKIRPLGAGHWTL shows soluble fraction (log2) of -0.1 or higher.
Reply: Not met

Task item: Threshold query (soluble fraction (log2) >= -0.1) on HMFPNLTNEEQQVMKVLAKTNDLQINMLSVQSNLPIARLTALLFSMEMKGVVKTLAGGVYHLL
Reply: Not met

Task item: Hi team, for HMEALTPREREVLTLMGQGRSNAEIATLLSIAPRTAKVHVQNILSKLGATNRTEAVSLAVRQGLIS , is the recorded soluble fraction (log2) at or above -0.1?
Reply: Met

Task item: Kindly determine if soluble fraction (log2) recorded for HMPDTETLTPRQRQILDLVQELGFTTIETLAERFGVSAQTVRREIIRLQAGNFLQRFHGGAGLASGGIRSA is above or exactly -0.1.
Reply: Not met

###

Assay: soluble fraction after stress (log2 fold change); higher = more stays soluble; pooled small domains, quantitative proteomics
Conditions: stress: 50 degC
Entry flag: rule met if soluble fraction (log2) reaches 0.08; rule not met if it does not.

Task item: Textbook exercise: given the entry HMAEIIVHEINRHLGESDEPVEFPEERREEAVAELLKNFHNDDAFRKMDDGKYEVALDGEAVREAARSLLA , state whether its soluble fraction (log2) is greater than or equal to 0.08.
Reply: rule met

Task item: Does the sequence HMYGVAEFDEKGNVLSIEEKPVQPKSNYAVVGLYFYPNKVVGVASGIKPSARGELEITTVNQTFLRDEELK have recorded soluble fraction (log2) that is 0.08 or more?
Reply: rule met

Task item: hey, is soluble fraction (log2) for this one >= 0.08? HMHRIKRRNDTLVSALDSIAGIGAKRKKALLQHFGSVRAIKAVSAEEIAKVEGISPTLANQIFEAL
Reply: rule not met

Task item: Could you verify whether the entry HMGTVVKRNALVHAWTEFNGGRASTKLLALGPGKVGEWIELENPQSGRKLRGEVQVDGSVRLG shows soluble fraction (log2) of no less than 0.08?
Reply: rule met

Task item: Does soluble fraction (log2) meet or surpass 0.08 for HMADYYSILGLTKNATDIEIKSAFRKLAKIYHPDKNPDPNARVLFEHILKAYDTLINPHSRRRYDSL ?
Reply: rule not met

Task item: Quick check: does HMATSNDTQITGSLALRFDGSGDTFTVNVNGDDKLEINTEGTVIYKPLTTAPTYVSGGLFFSSSGDFYVG have soluble fraction (log2) greater than or equal to 0.08?
Reply: rule not met

Task item: Hello, I need to know if HMFDLSQRQEQIIEIVRKHGPITGEKIADLLYVTRAALRPDLAILTMSGYLEAKPRVGYTYK has measured soluble fraction (log2) not below 0.08. Thanks!
Reply: rule not met

Task item: Would you say HMSLYGGYEIDIIKEEVVDAGIKLLRRRVIVADQRGISVYEGKPTFASDDQVLIKEGQYQIDKLG shows soluble fraction (log2) at minimum 0.08?
Reply: rule not met

Numbers sourced from the domain aggregation screens of Martell et al. (2025).
